- Study system: human ether-à-go-go-related gene (hERG) potassium channel (human, UniProt Q12809);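 also: peak tail current of the secondary pulse compared with the same well before compound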
- Sequence (Q12809 whole entry, looked up): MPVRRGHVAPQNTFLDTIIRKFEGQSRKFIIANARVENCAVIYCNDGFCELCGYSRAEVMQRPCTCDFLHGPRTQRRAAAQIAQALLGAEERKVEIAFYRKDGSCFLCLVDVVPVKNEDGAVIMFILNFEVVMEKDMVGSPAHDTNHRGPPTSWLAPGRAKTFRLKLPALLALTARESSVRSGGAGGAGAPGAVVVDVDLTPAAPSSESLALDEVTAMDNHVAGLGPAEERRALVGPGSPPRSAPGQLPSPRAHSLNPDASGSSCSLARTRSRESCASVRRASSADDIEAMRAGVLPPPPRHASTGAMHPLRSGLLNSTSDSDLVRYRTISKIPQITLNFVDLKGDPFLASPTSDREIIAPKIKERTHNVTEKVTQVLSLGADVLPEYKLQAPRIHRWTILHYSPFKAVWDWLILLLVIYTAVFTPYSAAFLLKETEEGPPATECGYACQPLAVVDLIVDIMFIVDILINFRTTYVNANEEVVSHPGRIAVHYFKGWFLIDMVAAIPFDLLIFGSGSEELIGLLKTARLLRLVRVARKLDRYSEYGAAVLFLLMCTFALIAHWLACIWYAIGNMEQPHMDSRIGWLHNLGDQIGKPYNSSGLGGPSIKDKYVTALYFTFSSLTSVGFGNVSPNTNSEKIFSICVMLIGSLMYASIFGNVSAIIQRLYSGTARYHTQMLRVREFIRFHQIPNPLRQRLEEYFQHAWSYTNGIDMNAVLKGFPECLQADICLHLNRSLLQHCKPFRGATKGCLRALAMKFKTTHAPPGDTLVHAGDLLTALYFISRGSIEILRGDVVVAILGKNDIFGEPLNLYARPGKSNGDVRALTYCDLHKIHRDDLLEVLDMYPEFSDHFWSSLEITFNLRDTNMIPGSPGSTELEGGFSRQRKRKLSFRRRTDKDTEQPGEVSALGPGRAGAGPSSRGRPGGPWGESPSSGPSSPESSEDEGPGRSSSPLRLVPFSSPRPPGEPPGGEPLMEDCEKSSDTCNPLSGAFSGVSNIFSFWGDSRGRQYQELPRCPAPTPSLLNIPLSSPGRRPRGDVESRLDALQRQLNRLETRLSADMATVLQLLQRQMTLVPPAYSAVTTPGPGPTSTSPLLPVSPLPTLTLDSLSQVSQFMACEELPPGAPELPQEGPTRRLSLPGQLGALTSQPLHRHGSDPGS
- Procedure summary: primary screen, population patch clamp on CHO cells stably expressing hERG; higher = less effect of the substance
The campaign covered roughly 310,000 compounds. About 14,000 (4.5%) showed an effect of 50% or more. The effect is printed as a negative number. Shown is part of a subset that was picked to be rich in strong results.
Consider the following compounds; for each one, report its hERG current change (%, negative = inhibition) at 10uM.
The reply should contain only the number, in %.

Given the compound "Cc1ccc(C)c(CSc2ccc3nnc(-c4ccccn4)n3n2)c1" , what is its reported hERG current change (%, negative = inhibition) at 10uM?
-76.5

Do the same for "CCc1cc(=O)oc2c3c(cc(OCC(=O)NCCCn4ccnc4)c12)OC(C)(C)CC3" please
-51.1

Do the same for CC1(c2nnc(-c3ccccc3)o2)CC(c2c(Cl)cccc2Cl)=NO1 (stereo not drawn) please
23.4

Do the same for CCOc1ccc(N(CC(=O)NCC2CCCO2)C(=O)CCC(=O)Nc2nccs2)cc1 (stereo not drawn) please
2.69

Do the same for COc1ccc(Cl)cc1S(=O)(=O)N1CCCC(C(=O)N2CCCC2)C1 (stereo not drawn) please
-5.2

Do the same for "CCOc1cc(C(=O)O/N=C(\N)c2ccc([N+](=O)[O-])cc2)cc(OCC)c1OCC" please
-16

Do the same for "O=C(C1=C[C@H](c2ccccc2)C[C@H](OCCCCO)O1)N1CCN(Cc2ccc3c(c2)OCO3)CC1" please
-41.8

Do the same for "O=[N+]([O-])c1ccc(Cl)c(S(=O)(=O)/N=C(/c2ccccc2)N2CCOCC2)c1" please
3.91

Do the same for "O=C(C1=C[C@H](c2ccc3c(c2)OCO3)C[C@H](OCCCCO)O1)N1CCOCC1" please
-1.14

Do the same for CC(CCc1ccc(O)cc1)NCCC(c1ccccc1)c1ccccc1 (stereo not drawn) please
-76.1

Do the same for CC1(c2nnc(-c3ccccc3)o2)CC(c2ccccc2)=NO1 (stereo not drawn) please
-11.6

Do the same for "Nc1nnc(SCC(=O)Nc2cccc(S(=O)(=O)N3CCCCC3)c2)s1" please
-12.8

Do the same for "Cc1cc(=O)oc2c3c(cc(OCC(=O)NCc4ccncc4)c12)OC(C)(C)CC3" please
-27.7

Do the same for COc1cc(CCC(C)NCc2ccccc2)ccc1O (stereo not drawn) please
-3.87

Do the same for "CC(=O)n1cc([C@H]2C=C(C(=O)N3CCN(Cc4ccc5c(c4)OCO5)CC3)O[C@@H](OCc3ccc(CO)cc3)C2)c2ccccc21" please
3.43

Do the same for Cc1ccc(C)c(S(=O)(=O)NC(C)C(=O)Nc2ccc(-c3nc4ccccc4s3)cc2)c1 (stereo not drawn) please
2.9

Do the same for "O=C(CCC(=O)Nc1ccccc1)N/N=C/C=C/c1ccccc1" please
32.1

Do the same for "CN1CCN(C(=O)C2=C[C@H](c3ccc4c(c3)OCO4)C[C@H](OCCCCO)O2)CC1" please
-8.06

Do the same for "CC(=O)n1cc([C@@H]2C=C(C(=O)N3CCN(Cc4ccc5c(c4)OCO5)CC3)O[C@H](OCCCCO)C2)c2ccccc21" please
-50.2

Do the same for COc1ccc(C2=NOC(C)(c3nnc(-c4ccncc4)o3)C2)cc1 (stereo not drawn) please
1.73

Do the same for "CCOc1ccc(-c2cc(CCCC(=O)NCc3cccnc3)no2)cc1" please
-35

Do the same for "C[C@H](NCCc1ccc(O)cc1)[C@H](O)c1ccc(O)cc1.Cl" please
6.27

Do the same for "O=C(C1=C[C@H](c2ccccc2)C[C@H](OCc2ccc(CO)cc2)O1)N1CCN(Cc2ccc3c(c2)OCO3)CC1" please
-39.5

Do the same for "Cc1cc(NC(=O)CSc2ccc3nnc(-c4ccccn4)n3n2)no1" please
-6.72
